tested on: 429239-143-T-J1-PDC complex spheroid viability; experiment: Anticancer human tumor 429239-143-T-J1-PDC patient-derived small cell lung carcinoma cell line growth inhibition [POLQ]; details: curve of first compound; second compound 0.0316 µM
READOUT_TYPE: pIC50
Expect pIC50 as a plain number equal to -log10 of the molar concentration.

Below are worked cases with known answers.
COMPOUND	READOUT_TYPE	ASSAY_VALUE
COc1cccc2c1C(=O)c1c(O)c3c(c(O)c1C2=O)CC(O)(C(=O)CO)CC3OC1CC(N)C(O)C(C)O1 (stereo not given) + Cc1cccc(N(C)C(=O)C2C(O)CCN2c2nc(C)cc(C(F)(F)F)c2C#N)c1	pIC50	7.25
COc1cc(C2c3cc4c(cc3C(OC3OC5COC(C)OC5C(O)C3O)C3COC(=O)C23)OCO4)cc(OC)c1O (stereo not given) + Nc1ccc(C#CCN(C(=O)Cc2ncc(C(F)(F)F)cc2C(F)(F)F)c2ccc(F)cc2)nn1	pIC50	6.30
CC1COCCN1c1cc(C2(O)CC3CCC(C2)O3)c2cnn(-c3ccn[nH]3)c2n1 (stereo not given) + COC1C(OC(N)=O)C(O)C(Oc2ccc3c(O)c(NC(=O)c4ccc(O)c(CC=C(C)C)c4)c(=O)oc3c2C)OC1(C)C	pIC50	7.31
CC(=O)O[C@H]1C(=O)[C@@]2(C)[C@H]([C@H](OC(=O)c3ccccc3)[C@]3(O)C[C@H](OC(=O)[C@H](O)[C@@H](NC(=O)c4ccccc4)c4ccccc4)C(C)=C1C3(C)C)[C@]1(OC(C)=O)CO[C@@H]1C[C@@H]2O + Cc1cccc(N(C)C(=O)C2C(O)CCN2c2nc(C)cc(C(F)(F)F)c2C#N)c1	pIC50	7.87
O=C(c1cc(Cc2n[nH]c(=O)c3ccccc23)ccc1F)N1CCN(C(=O)C2CC2)CC1 + Cc1cccc(N(C)C(=O)C2C(O)CCN2c2nc(C)cc(C(F)(F)F)c2C#N)c1	pIC50	5.80

// query Please supply the value of reported pIC50 for the item CC[C@@]1(O)C(=O)OCc2c1cc1n(c2=O)Cc2cc3c(CN(C)C)c(O)ccc3nc2-1 + Nc1ccc(C#CCN(C(=O)Cc2ncc(C(F)(F)F)cc2C(F)(F)F)c2ccc(F)cc2)nn1
// result 7.77

// query Find the measured pIC50 of COc1ccc([C@@H](O)c2cc(-c3ncnc4cc(N5CCOCC5)ccc34)c(F)cc2Cl)nn1 + Nc1ccc(C#CCN(C(=O)Cc2ncc(C(F)(F)F)cc2C(F)(F)F)c2ccc(F)cc2)nn1 and report it.
// result 5.03

// query State its pIC50 for this compound: CC[C@@]1(O)C(=O)OCc2c1cc1n(c2=O)Cc2cc3c(CN(C)C)c(O)ccc3nc2-1 + Cc1cccc(N(C)C(=O)C2C(O)CCN2c2nc(C)cc(C(F)(F)F)c2C#N)c1
// result 7.98

###

system: 429239-143-T-J1-PDC complex spheroid viability; test: Anticancer human tumor 429239-143-T-J1-PDC cell line growth inhibition [POLQ]; conditions: second compound 3.16 µM; first compound 0.316 µM; active = viability on the fitted dose curve at most 10% of control; inactive = the rest;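 further: luminescence signal used as surrogate measure of viable cells; spheroids exposed to compounds for seven days before readout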
Please state which outcome applies, choosing from active, inactive

COMPOUND	CATEGORY
CCc1cc2c(N3CCc4c(cc(Cn5ccnc5)cc4-c4cn(C)nc4C(F)(F)F)C3=O)cc(C)nc2c(OC)n1 + Cc1cccc(N(C)C(=O)C2C(O)CCN2c2nc(C)cc(C(F)(F)F)c2C#N)c1	inactive
CCc1cc2c(N3CCc4c(cc(Cn5ccnc5)cc4-c4cn(C)nc4C(F)(F)F)C3=O)cc(C)nc2c(OC)n1 + Nc1ccc(C#CCN(C(=O)Cc2ncc(C(F)(F)F)cc2C(F)(F)F)c2ccc(F)cc2)nn1	inactive

Now consider the entry below.
// query Recorded test outcome, item CC(C)n1c(=O)n(C)c2cnc3cc(F)c(-c4ccc(OCCCN5CCCCC5)nc4)cc3c21 + COC1C(OC(N)=O)C(O)C(Oc2ccc3c(O)c(NC(=O)c4ccc(O)c(CC=C(C)C)c4)c(=O)oc3c2C)OC1(C)C
// result inactive
